Measured growth accompanies every entry in the list below.
# Test system: HS 578T breast
# protocol: NCI-60 one-dose screen, 48 h (100 = growth as untreated, 0 = no growth, -100 = all killed)
# measurement_conditions: 10 µM unless noted
The panel holds about 83,000 compounds, 20% with a hit somewhere; the sample as a whole holds those more often.
Give the value, in units of %, as a plain number.

Q: Given CCOC(=O)c1cnn(-c2nc(-c3ccc(F)cc3)c(C#N)c(N3CCOCC3)n2)c1N , state its recorded growth.
Ans: 103

Q: Would you mind doing Nc1c(C(=O)Nc2cccc3ccccc23)sc2nc3c(cc12)CCCCCC3 as well?
Ans: 28.6

Q: // next record N#Cc1ccc(N2Cc3cc(Cl)ccc3OC3=C2C(=O)N(Cc2ccc(F)cc2)C3=O)cc1
Ans: 27

Q: And C#C[C@@]1(O)[C@@H](CO)O[C@@H](n2cc(Cl)c3c(N)ncnc32)[C@@H]1O ?
Ans: 5.45

Q: Subsequent entry: COc1ccc(-n2cc(-c3ccc(Cl)c(Cl)c3)[nH]c2=O)cc1OC
Ans: 102

Q: Try this compound next: COc1cc(C2=NNC(c3ccc(N(C)C)cc3)C2)cc(OC)c1OC (stereo unspecified)
Ans: -21.7

----------
# Tested on: SN12C renal
# protocol: NCI-60 one-dose screen, 48 h (100 = growth as untreated, 0 = no growth, -100 = all killed)
# measurement_conditions: 10 µM unless noted
# Description: Growth inhibition of the SN12C human tumor cell line is measured as a screen for anti-cancer activity. Cells are grown in 96 well plates and exposed to the test compound for 48 hours. Compounds are tested at a single concentration, which is 10^-5 M for most compounds. The reported endpoint is percent growth (GI% or GIPRCNT), where numbers from 0 - 100% represent growth inhibition, and numbers from -100% - 0 represent cell death. For example, a value of 40 represents 60% growth inhibition. […]
Compounds without any hit were thinned out: in the full panel of roughly 83,000, 20% have a hit.
Note to self: use Criterion met only for growth readings below 40%; a reading exactly at 40% still gets Criterion not met.

Q: Consider the compound COc1ccc(/C=C/C(=O)/C=C(/C=C/c2ccc(OC)c(OC)c2)OB(F)F)cc1OC . Is its growth strictly less than 40%?
Ans: Criterion met

Q: COCCOCCOCc1n(Cc2ccc3ccccc3c2)c2ccccc2[n+]1Cc1ccc2ccccc2c1 ?
Ans: Criterion met

Q: Next record, please: CCOC(=O)C1=C(C)n2nc(CC#N)c(C#N)c2NC1c1ccc(Cl)cc1 (centres undefined)
Ans: Criterion not met

Q: Now the compound CCOC(=O)c1ccc(Nc2ncnc3ccc(NC(=O)c4ccccc4)cc23)cc1
Ans: Criterion not met

Q: Would you kindly repeat that for C#C[C@@]1(O)[C@@H](CO)O[C@@H](n2cnc3c(-c4ccccc4)ncnc32)[C@@H]1O ?
Ans: Criterion not met

Switching to the query record.
Q: Check if growth falls below 40% for Cc1ccc(-c2nc(C#N)c(S(=O)(=O)N(C)CCO)o2)cc1 .
Ans: Criterion not met

----------
# Tested on: HCT-116 colon
# protocol: NCI-60 one-dose screen, 48 h
# measurement_conditions: 10 µM unless noted
Compounds without any hit were thinned out: in the full panel of roughly 83,000, 20% have a hit. The source made the active and inactive calls. Rule for the calls: active = growth percent below 10; inactive = the rest.
Outcome field: choose from Yes for active, No for inactive

Please review the following examples before continuing.
Q: // return assay outcome for COC(=O)/C=C1\SC(=Nc2ccc(C(F)(F)F)cc2)N(CCc2c[nH]c3ccccc23)C1=O
Ans: Yes

Q: Likewise for CC(=O)ON1CCCC(P(=O)(OCOC(=O)C(C)(C)C)OCOC(=O)C(C)(C)C)C1=O (centres undefined) ?
Ans: Yes

Q: What about this compound? c1cc(CNC23CC4CC(CC(C4)C2)C3)cc(C[N+](Cc2cccc(CNC34CC5CC(CC(C5)C3)C4)c2)(Cc2cccc(CNC34CC5CC(CC(C5)C3)C4)c2)Cc2cccc(CNC34CC5CC(CC(C5)C3)C4)c2)c1 (centres undefined)
Ans: Yes

Q: Follow-up entry: O=C(O)COc1ccc2c(=O)c3sc4c(=O)c5ccccc5c(=O)c4c3c(=O)c2c1
Ans: No

Q: // next record Cc1nc2sc(C(=O)Nc3cccc4ccccc34)c(N)c2cc1C(C)O (centres undefined)
Ans: Yes

Q: What about this compound? C#C[C@@]1(O)[C@@H](CO)O[C@@H](n2cc(I)c3c(N)ncnc32)[C@@H]1O
Ans: Yes

Q: Then COc1cc(/C=C/C(=O)c2cccs2)ccc1OCc1ccc(Cl)nc1 ?
Ans: No

Q: Quick one: C[C@H]1[C@H](C)CC[C@]2(C(=O)OCCCC[P+](c3ccccc3)(c3ccccc3)c3ccccc3)CC[C@]3(C)C(=CC[C@@H]4[C@@]5(C)CC[C@H](OC(=O)C(Cl)Cl)C(C)(C)[C@@H]5CC[C@]43C)[C@H]12
Ans: Yes

Q: Here is the next compound: CC1CCCN(CCCCCOc2ccc3oc4ccc(Cl)cc4c(=O)c3c2)C1 (centres undefined)
Ans: No

Q: Could you do the same for C#C[C@@]1(O)[C@@H](CO)O[C@@H](n2ccc3c(N)ncnc32)[C@@H]1O , please?
Ans: Yes

Continuing:
Q: For NC(=N\N=C\c1ccccc1O)/C(N)=N/N=C/c1ccccc1O , what call appears in the results of this test?
Ans: No

Q: Also COc1ccc(-c2cn(-c3ccc(Cl)cc3)c(=S)[nH]2)cc1OC , if possible.
Ans: No

Q: Same again, this time with O=C1CCc2ccccc2N1
Ans: No

Q: Then this compound: c1ccc2c3c([nH]c2c1)C(c1ccc(C2NCCc4c2[nH]c2ccccc42)cc1)NCC3 (centres undefined)
Ans: Yes

----------
# Tested on: UACC-257 melanoma
# protocol: NCI-60 one-dose screen, 48 h (100 = growth as untreated, 0 = no growth, -100 = all killed)
# measurement_conditions: 10 µM unless noted
About 83,000 compounds went through this panel and 20% of them were active in at least one assay; those are over-represented in the sample as a whole.
recorded_endpoint: growth (%)
Just the number please, in %, no unit attached.

Consider the reported growth for these compounds:
Q: Please report the recorded growth for O=CN1N=C(c2ccc(F)cc2)CC1c1cccc(Nc2ccnc3cc(C(F)(F)F)ccc23)c1 (stereo not drawn) .
Ans: 48.6

Q: Thanks! And COc1cc2c(cc1OCCCOc1cc3c(cc1OC)C(=O)N1CC(F)(F)C[C@H]1C=N3)N=C[C@@H]1CC(F)(F)CN1C2=O ?
Ans: 34.9

Q: Next entry: CCOc1ccccc1C(=O)/C=C/c1cc2ccccc2[nH]c1=O
Ans: -9.05

Q: Can you handle C=C1C(=O)O[C@H]2[C@H]1CCC(/C=N/c1ncc(Br)cc1N)=C\CC[C@@]1(C)O[C@@H]21 next?
Ans: 22

Q: One more compound: COc1ccc2nc(-c3ccc(Cl)cc3)cc(C(=O)N3N=C(c4ccc(N)cc4)CC3c3ccccc3)c2c1 (stereo not drawn)
Ans: 67.1

Others:
Q: # growth lookup, item COc1ccc2nc(-c3ccc(OC)c(OC)c3)cc(-c3nnc(SCC(=O)Nc4ccc(C(C)=O)cc4)o3)c2c1
Ans: 101

Q: Would you kindly repeat that for Cc1ccccc1NC(=O)c1sc2nc(C)c(C(C)O)cc2c1N (stereo not drawn) ?
Ans: 52.5

Q: Also COc1cc(NC(=O)c2cc(O)c(C/C=C(\C)CCC=C(C)C)c(O)c2)cc2c1O[C@]1(C)CC[C@@H](O)C(C)(C)[C@H]1C2 ?
Ans: 34.4

----------
Collected growth values appear next to each entry.
# Tested on: T-47D breast
# protocol: NCI-60 one-dose screen, 48 h (100 = growth as untreated, 0 = no growth, -100 = all killed)
# measurement_conditions: 10 µM unless noted
# Description: Growth inhibition of the T-47D human tumor cell line is measured as a screen for anti-cancer activity. Cells are grown in 96 well plates and exposed to the test compound for 48 hours. Compounds are tested at a single concentration, which is 10^-5 M for most compounds. The reported endpoint is percent growth (GI% or GIPRCNT), where numbers from 0 - 100% represent growth inhibition, and numbers from -100% - 0 represent cell death. For example, a value of 40 represents 60% growth inhibition. […]
This is part of a sample that, as a whole, favours compounds with a hit. Of some 83,000 tested, about 20% had one in any assay. Activity calls are given as the source filed them. How the source made its calls: active means growth percent below 10; inactive means the rest.

Consider the following illustrative entries.
Q: # get_value(readout='growth', item= CC(=O)OCC1SC(OC(C)=O)C(NC(=O)/C=C/CCl)C(OC(C)=O)C1OC(C)=O (centres undefined) )
Ans: 90.6% (inactive)

Q: Now give it for O=C(Nc1ccccc1)NS(=O)(=O)c1c[nH]c(=S)[nH]c1=O too.
Ans: 75.1% (inactive)

Q: How about COc1ccc(-c2cc(C(=O)N3N=C(c4ccc(N)cc4)CC3c3ccc(OC)cc3)c3cc(OC)ccc3n2)cc1 (centres undefined) ?
Ans: 43.4% (inactive)

Q: Subsequent entry: CC(=O)c1ccc(NC(=O)CSc2nnc(-c3cc(-c4ccc(C)cc4)nc4ccccc34)o2)cc1
Ans: 44.8% (inactive)

Q: Quick one: C#CCN1C(=O)c2ccccc2N(CC#C)C12CCN(Cc1cn(CC(=O)Nc3ccccc3C(N)=O)nn1)CC2
Ans: 77% (inactive)

***
Q: If you can, please state the reported growth value of Cc1cccc(C)c1Nc1nnc(-c2ccc(F)cc2)o1 .
Ans: 110% (inactive)

Q: Can you handle O=C(N/N=C/C[C@@H]1[C@@H](/C=C/[C@@H](O)COc2cccc(Cl)c2)[C@H](O)C[C@@H]1O)c1ccncc1 next?
Ans: 90.8% (inactive)

Q: Entry to check: CCCn1c2cc(OCc3cn(-c4ccc(Cl)cc4)nn3)ccc2c2ccnc(C)c21
Ans: 52.2% (inactive)

Q: Same again, this time with COc1ccc(-c2nnc(N3CCN(C(=O)CN4CCN(c5ccccc5)CC4)CC3)nc2-c2ccc(OC)cc2)cc1
Ans: 16.8% (inactive)

The measured values listed here are drawn from PubChem BioAssay (NCI).
